Here the recorded parasite growth remaining, % of DMSO control (lower = more inhibition) is given for each entry.
# assay_procedure: qHTS profiling of the MIPE4 collection as inhibitors of Plasmodium falciparum (DD2) proliferation (AID 743345)
# condition_summary: P. falciparum Dd2 in erythrocytes, SYBR Green DNA, 72 h; at 28.5 µM (top of the series) unless noted
Report only the number, with the unit % understood.

Incoming: Looking for the measured parasite growth remaining, % of DMSO control (lower = more inhibition) of "CCc1cc(C(C)=NOCc2ccc(C3CCCCC3)c(C(F)(F)F)c2)ccc1CN1CC(C(=O)O)C1" , can you help?
Outgoing: 69.4

----------
# assay_procedure: qHTS of pediatric cancer cell lines to identify multiple opportunities for drug repurposing: Primary screen for RD cells (AID 1347104); also: nearly all actives have a fitted effect of over 55% in size
# condition_summary: RD rhabdomyosarcoma viability, CellTiter-Glo luminescence, 48 h; series mostly up to 46 µM
# Procedure: Drug repurposing or repositioning has been offered as a strategy for drug development in oncology programs. This approach has special potential for childhood cancers and other rare or orphan diseases, where the expected return on new drug development has been a disincentive to pharmaceuticals. […] We employed a titration-based paradigm (quantitative high-throughput screening or qHTS), where all compounds were tested at multiple concentrations for their effect on cell viability. […]
Records with an inconclusive call do not appear. The source made the active and inactive calls. Calls come from the whole dose curve; as a rule, active = well fitted cell-killing curve with a large enough effect; inconclusive = small, poorly fitted or top-dose-only effect; inactive = flat fitted curve, though single readings scatter.
I would appreciate it if you answered using one of these outcomes: active, inactive

Study these solved cases before continuing.
1. C[C@@H]1C(=O)O[C@H]2CC34[C@H]5C[C@@H](C(C)(C)C)C36[C@H](OC(=O)[C@@H]6O)O[C@@]4(C(=O)O5)[C@]21O (stereo not given in full) | inactive
2. COc1ccc(Nc2nccc(NCCO)n2)cc1 | inactive
3. O=C(CCCCCCC(=O)Nc1cccnc1)NO | active

Incoming: Test call, this compound: "CCCNS(=O)(=O)Nc1ncnc(OCCOc2ncc(Br)cn2)c1-c1ccc(Br)cc1"
Outgoing: inactive

Incoming: Test call, this compound: "N#Cc1c(C2CCNCC2)cc(-c2c(O)cccc2OCC2CC2)nc1N"
Outgoing: active

Incoming: Test call, this compound: "CC(=O)NCC(=O)N1[C@H]2CC[C@H]1c1cc(Nc3ncc(C(F)(F)F)c(NC4CCC4)n3)ccc12"
Outgoing: active

----------
# assay_procedure: Quantitative High-Throughput drug screen in 47 multiple myeloma cell lines against the NCATS MIPE library collection: Delta47_JCRB cell viability assay (AID 1918925; also: nearly all actives have a fitted effect of over 45% in size; also: potency is read from the fitted curve at half-maximal effect)
# condition_summary: Delta47 myeloma viability, CellTiter-Glo ATP, 48 h; series mostly up to 45.8 µM
Inconclusive results are not listed. The source made the active and inactive calls. Calls come from the whole dose curve; as a rule, active = well fitted cell-killing curve with a large enough effect; inconclusive = small, poorly fitted or top-dose-only effect, or effect the other way; inactive = no such curve, though single readings can be large or run the other way.
quantity_kind: Potency

1. CCCCCN=C(N)NN=Cc1c[nH]c2ccc(OC)cc12 | 13.2 µM (active)
2. CC[C@]12C=CCN3CC[C@@]4(c5cc([C@@]6(C(=O)OC)C[C@H]7C[C@@H](C(C)(F)F)CN(Cc8c6[nH]c6ccccc86)C7)c(OC)cc5N(C)[C@H]4[C@@](O)(C(=O)OC)[C@H]1OC(C)=O)[C@@H]32 | 0.0093 µM (active)
3. C#C[C@]1(O)CC[C@@H]2[C@@H]3CCC4=CC(=O)CC[C@@H]4[C@H]3CC[C@@]21CC | inactive
4. COc1cc(OC)c(NC(=O)Nc2cc(C)on2)cc1Cl | inactive
5. COc1cc2c(cc1O)CCC1C2CC[C@@]2(C)C1CC[C@@H]2O (some centres not stated) | 2.64 µM (active)

// switching to the query compound
Incoming: Looking for the measured Potency of "Cn1cc(C=CC(=O)c2cccc(F)c2)cc1C=CC(=O)NO" , can you help?
Outgoing: 18.7 µM (active)

----------
# assay_procedure: qHTS of pediatric cancer cell lines to identify multiple opportunities for drug repurposing: Primary screen for BT-37 cells (AID 1347094)
# condition_summary: BT-37 viability, CellTiter-Glo luminescence, 48 h; series mostly up to 57.3 µM
Records with an inconclusive call do not appear. The source made the active and inactive calls. Calls come from the whole dose curve; as a rule, active = well fitted cell-killing curve with a large enough effect; inconclusive = small, poorly fitted or top-dose-only effect; inactive = flat fitted curve, though single readings scatter.
I would appreciate it if you answered using one of these outcomes: active, inactive

1. COc1cccc2c1C(=O)c1c(O)c3c(c(O)c1C2=O)C[C@@](O)(C(=O)CO)C[C@@H]3O[C@H]1C[C@H](N)[C@H](OC2CCCCO2)[C@H](C)O1 (stereo partly drawn) | active
2. C=C1C[C@@]2(O)O[C@@]3(C[C@H]2C(C)C)[C@H](C)CC[C@H]13 | inactive
3. CCNC(=O)Nc1ccc(-c2nc3c(c(N4CCOC[C@H]4C)n2)CCN(C2COC2)C3)cc1 | active

Turning now to a further molecule:
Incoming: Test call, this molecule: CCCCCCCCCCCC(CC1OC(=O)C1CCCCCC)OC(=O)C(CC(C)C)NC=O (stereo not drawn)
Outgoing: inactive

----------
# assay_procedure: Quantitative High-Throughput drug screen in 47 multiple myeloma cell lines against the NCATS MIPE library collection: RPMI8226_ATCC cell viability assay (AID 1919871); also: nearly all actives have a fitted effect of over 30% in size
# condition_summary: RPMI8226 myeloma viability, CellTiter-Glo ATP luminescence, 48 h; series mostly up to 45.8 µM
Records with an inconclusive call do not appear. Activity calls are given as the source filed them. The call rests on the fitted dose curve; in most records, active means well fitted cell-killing curve with a large enough effect; inconclusive means small, poorly fitted or top-dose-only effect, or effect the other way; inactive means no such curve, though single readings can be large or run the other way.
I would appreciate it if you answered using one of these outcomes: active, inactive

Study these solved cases before continuing.
1) O=C(C=Cc1ccc(CN(CCO)CCc2c[nH]c3ccccc23)cc1)NO | active
2) N=c1ccn2c(n1)O[C@H]1[C@@H](O)[C@@H](CO)O[C@H]12 | inactive
3) CC(C)N(CC[C@H](c1ccccc1)c1cc(CO)ccc1O)C(C)C | inactive
4) O=C(CN1C(=O)C2(CCCC2)NC[C@H]1c1cc(F)cc(F)c1)Nc1ccc2c(c1)C[C@@]1(C2)C(=O)Nc2ncccc21 | inactive
5) O=C1NCCc2[nH]c(-c3ccncc3)cc21 | active
6) C[N+]1(C)[C@@H]2C[C@@H](OC(=O)C(O)(c3cccs3)c3cccs3)C[C@H]1[C@@H]1O[C@@H]12 | inactive

Turning now to a further compound:
Incoming: Test call, this compound: "CCOc1cc2c(c(F)c1OCC)C(=N)N(CC(=O)c1cc(N3CCOCC3)c(OC)c(C(C)(C)C)c1)C2"
Outgoing: active

----------
# assay_procedure: qHTS of pediatric cancer cell lines to identify multiple opportunities for drug repurposing: Primary screen for Rh41 cells (AID 1347108); also: nearly all actives have a fitted effect of over 70% in size
# condition_summary: Rh41 rhabdomyosarcoma viability, CellTiter-Glo luminescence, 48 h; series mostly up to 46 µM
# Description: Drug repurposing or repositioning has been offered as a strategy for drug development in oncology programs. This approach has special potential for childhood cancers and other rare or orphan diseases, where the expected return on new drug development has been a disincentive to pharmaceuticals. […] We employed a titration-based paradigm (quantitative high-throughput screening or qHTS), where all compounds were tested at multiple concentrations for their effect on cell viability. […]
Records with an inconclusive call do not appear. The source made the active and inactive calls. Calls follow the shape of the dose curve; as a rule, active = well fitted cell-killing curve with a large enough effect; inconclusive = small, poorly fitted or top-dose-only effect; inactive = no such curve, though single readings can be large or run the other way.
I would appreciate it if you answered using one of these outcomes: label 1 = active, label 0 = inactive

Study these solved cases before continuing.
1) Cn1cc(C[C@@H](N)C(=O)O)c2ccccc21 | label 0
2) Cn1cc(CNCC2CCN(c3ncc(C(=O)NO)cn3)CC2)c2ccccc21 | label 1
3) CNC(=O)c1cccc(-c2ccc3c(N4CCOC[C@H]4C)nc(N4CCOC[C@H]4C)nc3n2)c1 | label 1
4) C=C1C(=CC=C2CCC[C@]3(C)[C@@H]([C@H](C)CCCC(C)(C)O)CC[C@@H]23)C[C@@H](O)C[C@@H]1O | label 1
5) NC1=N[C@H]2[C@H](CS[C@H]2CCCCC(=O)O)N1 | label 0
6) CCN(CC)CCCCNc1ncc2c(n1)N(C)C(=O)N(c1c(Cl)c(OC)cc(OC)c1Cl)C2 | label 1

Incoming: Test call, this molecule: "CC(C)[C@H](CO)Nc1nc(Nc2cccc(Cl)c2)c2ncn(C(C)C)c2n1"
Outgoing: label 1

Incoming: Test call, this molecule: "CC(C=CC1=C(C)CCCC1(C)C)=CC=CC(C)=CC(=O)Nc1ccc(O)cc1"
Outgoing: label 1

Incoming: Test call, this molecule: "CCc1cnn2c(NCc3ccc[n+]([O-])c3)cc(N3CCCC[C@@H]3CCO)nc12"
Outgoing: label 1

Incoming: Test call, this molecule: C=C[C@@H]1CN2CCC1C[C@H]2[C@H](O)c1ccnc2ccc(OC)cc12 (stereo not given in full)
Outgoing: label 0

Incoming: Test call, this molecule: "CC(C)C[C@H](NC(=O)[C@@H](NC(=O)c1cccc(-c2ccccc2)n1)[C@@H](C)O)B(O)O"
Outgoing: label 1

----------
# assay_procedure: qHTS of pediatric cancer cell lines to identify multiple opportunities for drug repurposing: Primary screen for BT-37 cells (AID 1347094)
# condition_summary: BT-37 viability, CellTiter-Glo luminescence, 48 h; series mostly up to 57.3 µM
# Description: Drug repurposing or repositioning has been offered as a strategy for drug development in oncology programs. This approach has special potential for childhood cancers and other rare or orphan diseases, where the expected return on new drug development has been a disincentive to pharmaceuticals. […] We employed a titration-based paradigm (quantitative high-throughput screening or qHTS), where all compounds were tested at multiple concentrations for their effect on cell viability. […]
Records with an inconclusive call do not appear. Calls of active or inactive are those of the source. The call rests on the fitted dose curve; in most records, active means well fitted cell-killing curve with a large enough effect; inconclusive means small, poorly fitted or top-dose-only effect; inactive means flat fitted curve, though single readings scatter.
I would appreciate it if you answered using one of these outcomes: active, inactive

1) CC[C@H](CC[C@@H](C)[C@H]1CC[C@H]2[C@@H]3CC=C4C[C@@H](O)CC[C@]4(C)[C@@H]3CC[C@]12C)C(C)C | inactive
2) CC(C)(O)Cn1c(NC(=O)c2ccc(-c3cn[nH]c3)s2)nc2cc(CN3CCOCC3)ccc21 | active
3) Cn1cc(C2=C(c3c4n(c5ccccc35)CCC(CN)C4)C(=O)NC2=O)c2ccccc21 (stereo not drawn) | active

Incoming: Test call, this molecule: "c1cc(CN2CCCNCCNCCCNCC2)ccc1CN1CCCNCCNCCCNCC1"
Outgoing: inactive

Incoming: Test call, this molecule: CN1[C@H]2CC(OC(=O)[C@@H](CO)c3ccccc3)C[C@H]1[C@H]1O[C@H]12 (stereo partly drawn)
Outgoing: inactive

Incoming: Test call, this molecule: "C[C@H]1[C@@H](OC(=O)CCC(=O)O)O[C@@H]2O[C@@]3(C)CC[C@@H]4[C@H](C)CC[C@@H]1[C@@]24OO3"
Outgoing: active

Incoming: Test call, this molecule: "OCc1ccccc1O[C@@H]1O[C@H](CO)[C@H](O)[C@H](O)[C@H]1O"
Outgoing: inactive

Incoming: Test call, this molecule: "O=C(C[C@@H]1CC=CCCC(=O)O[C@H](c2ccccc2)CNC1=O)NCc1ccc(Cl)cc1"
Outgoing: inactive

Incoming: Test call, this molecule: "O=c1c(O)c(-c2ccc(O)c(O)c2)oc2cc(O)ccc12"
Outgoing: active

Incoming: Test call, this molecule: "NC(=O)Nc1sc(-c2ccc(F)cc2)cc1C(N)=O"
Outgoing: active

Incoming: Test call, this molecule: C[C@H]1O[C@H](O[C@H]2[C@H](O)[C@@H](O)[C@@H](O[C@H]3[C@H](O)[C@@H](O)C(O)O[C@H]3CO)O[C@H]2CO)[C@H](O)[C@@H](O)[C@H]1N[C@H]1C=C(CO)[C@@H](O)[C@H](O)[C@@H]1O (stereo partly drawn)
Outgoing: active

Incoming: Test call, this molecule: O=C(O)CCCCC(CCSCc1ccccc1)SCc1ccccc1 (stereo not drawn)
Outgoing: inactive

Incoming: Test call, this molecule: "CC(=O)O[C@]1(C(C)=O)CC[C@H]2[C@@H]3C=C(C)C4=CC(=O)CC[C@]4(C)[C@@H]3CC[C@@]21C"
Outgoing: active
